molecular target: r5-HT2C (Rattus norvegicus); test: Ca2+ mobilization assay; type: cell-based; settings: read-out: r5-HT2C Emax
Sequence (P08909 33-460): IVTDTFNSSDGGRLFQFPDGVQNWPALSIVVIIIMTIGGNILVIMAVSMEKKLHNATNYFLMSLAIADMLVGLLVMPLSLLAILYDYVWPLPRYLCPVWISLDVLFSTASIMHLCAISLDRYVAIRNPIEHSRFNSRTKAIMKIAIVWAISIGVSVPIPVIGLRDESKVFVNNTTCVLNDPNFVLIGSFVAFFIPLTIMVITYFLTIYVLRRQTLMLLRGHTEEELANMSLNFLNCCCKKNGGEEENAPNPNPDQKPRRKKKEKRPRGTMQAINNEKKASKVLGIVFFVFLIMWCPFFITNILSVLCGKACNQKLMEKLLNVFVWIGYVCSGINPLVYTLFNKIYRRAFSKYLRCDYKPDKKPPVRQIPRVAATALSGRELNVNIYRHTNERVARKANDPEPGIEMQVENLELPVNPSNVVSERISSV
Assay Readout: Emax (%)
Just the number in %, nothing appended.

// below: answered molecules
COc1ccc2[nH]cc(CCNCc3cccc(F)c3)c2c1 100
COc1ccc(CNCCc2cc(OC)c(I)cc2OC)cc1 97
COc1ccc2[nH]cc(CCNCc3cccc(Br)c3)c2c1 112
COc1cccc(CNCCc2cc(OC)c(I)cc2OC)c1 91
COc1ccc2[nH]cc(CCNCc3ccccc3OC)c2c1 102
COc1cccc(CNCCc2c[nH]c3ccc(OC)cc23)c1 102
COc1cc(CCNCc2ccc(Br)cc2)c(OC)cc1I 105
COc1ccc2[nH]cc(CCNCc3cccc(Cl)c3)c2c1 105

Exercise: Consider the molecule shown here: COc1ccc2[nH]cc(CCNCc3ccc(Br)cc3)c2c1 What is its recorded Emax?
Key: 108

Exercise: Consider the molecule shown here: COc1ccc2[nH]cc(CCNCc3cccc(I)c3)c2c1 What is its recorded Emax?
Key: 110

---

target: 5-HT7 (Homo sapiens, UniProt P34969); assay: PDSP screening affinity 5-HT7; format: binding; settings: 5-HT7 affinity
Sequence (P34969 whole entry): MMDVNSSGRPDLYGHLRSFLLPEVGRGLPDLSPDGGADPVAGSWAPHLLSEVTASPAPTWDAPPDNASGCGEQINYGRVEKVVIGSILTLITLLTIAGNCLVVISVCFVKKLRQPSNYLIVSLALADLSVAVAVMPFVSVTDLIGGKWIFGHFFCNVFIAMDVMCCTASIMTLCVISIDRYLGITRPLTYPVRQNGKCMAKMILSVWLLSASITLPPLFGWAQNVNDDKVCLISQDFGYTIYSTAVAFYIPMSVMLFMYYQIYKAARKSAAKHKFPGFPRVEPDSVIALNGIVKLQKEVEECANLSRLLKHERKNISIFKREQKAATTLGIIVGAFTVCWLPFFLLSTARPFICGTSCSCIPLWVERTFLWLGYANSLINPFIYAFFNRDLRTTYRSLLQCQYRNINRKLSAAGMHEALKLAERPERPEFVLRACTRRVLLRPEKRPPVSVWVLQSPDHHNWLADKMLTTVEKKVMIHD
Assay Readout: Ki (nM)
Just the number in nM, nothing appended.

Compound	Ki (nM)
COc1ccc2[nH]cc(CCNCc3cccc(Br)c3)c2c1 [Compound 5e]	116
COc1cc(CCNCc2ccc(Br)cc2)c(OC)cc1I [Compound 4e]	641
COc1ccc(CNCCc2c[nH]c3ccc(OC)cc23)cc1 [Compound 5c]	37

Exercise: Consider the compound shown here: COc1ccc(CNCCc2cc(OC)c(I)cc2OC)cc1 [Compound 4b] What is its recorded Ki?
Key: 1570

Exercise: Consider the compound shown here: COc1cccc(CNCCc2c[nH]c3ccc(OC)cc23)c1 [Compound 5b] What is its recorded Ki?
Key: 406

Exercise: Consider the compound shown here: COc1ccc2[nH]cc(CCNCc3cccc(Cl)c3)c2c1 [Compound 5h] What is its recorded Ki?
Key: 281

Exercise: Consider the compound shown here: COc1cccc(CNCCc2cc(OC)c(I)cc2OC)c1 [Compound 4a] What is its recorded Ki?
Key: 583

Exercise: Consider the compound shown here: COc1ccc2[nH]cc(CCNCc3ccccc3OC)c2c1 [Compound 5a] What is its recorded Ki?
Key: 1770

Exercise: Consider the compound shown here: COc1ccc2[nH]cc(CCNCc3cccc(F)c3)c2c1 [Compound 5g] What is its recorded Ki?
Key: 242

Exercise: Consider the compound shown here: COc1cc(CCNCc2ccccc2Br)c(OC)cc1I [Compound 4c] What is its recorded Ki?
Key: 2550

Exercise: Consider the compound shown here: COc1cc(CCNCc2ccccc2OC)c(OC)cc1I [Compound 1] What is its recorded Ki?
Key: 1540

---

system: Male C57BL/6J mice; assay: Mouse head twitch response; details: SC, mouse head twitch
List of maximally effective dose values.
Answers without a unit are incomplete; give the number and then its unit.

// below: answered molecules
COc1ccc2[nH]cc(CCNCc3cccc(F)c3)c2c1 10 mg/kg
COc1ccc2[nH]cc(CCNCc3ccccc3OC)c2c1 10 mg/kg
COc1cccc(CNCCc2c[nH]c3ccc(OC)cc23)c1 10 mg/kg

Exercise: What reported maximally effective dose corresponds to COc1ccc2[nH]cc(CCNCc3cccc(Br)c3)c2c1 on Male C57BL/6J mice?
Key: 30 mg/kg

The origin of these recorded values is paper PMC4505863.
